# credit: ChEMBL document CHEMBL2021921

assay.notes: Displacement of fluorescent-ARC-583 from recombinant bovine PKAc by fluorescence anisotropy assay
Parameters: species or system Bos taurus
property: pIC50

// solved cases for pIC50 follow
INSERT INTO assay_data (smiles_record, property, result_number) VALUES
  ('N=C(N)NCCC[C@@H](NC(=O)[C@@H](CCCNC(=N)N)NC(=O)[C@@H](CCCNC(=N)N)NC(=O)[C@@H](CCCNC(=N)N)NC(=O)[C@@H](CCCNC(=N)N)NC(=O)[C@@H](CCCNC(=N)N)NC(=O)CCCCCNC(=O)[C@@H](CCCCN)NC(=O)CNCC(=O)NCCNS(=O)(=O)c1cccc2cnccc12)C(N)=O', 'pIC50', 6.07),
  ('N=C(N)NCCC[C@@H](NC(=O)[C@@H](CCCNC(=N)N)NC(=O)[C@@H](CCCNC(=N)N)NC(=O)[C@@H](CCCNC(=N)N)NC(=O)[C@@H](CCCNC(=N)N)NC(=O)[C@@H](CCCNC(=N)N)NC(=O)CCCCCNC(=O)[C@@H](CCCCN)NC(=O)CCNC(=O)CNCC(=O)NCCNS(=O)(=O)c1cccc2cnccc12)C(N)=O', 'pIC50', 6.79),
  ('N=C(N)NCCC[C@@H](NC(=O)[C@@H](CCCNC(=N)N)NC(=O)[C@@H](CCCNC(=N)N)NC(=O)[C@@H](CCCNC(=N)N)NC(=O)[C@@H](CCCNC(=N)N)NC(=O)[C@@H](CCCNC(=N)N)NC(=O)CNCC(=O)NCCNS(=O)(=O)c1cccc2cnccc12)C(N)=O', 'pIC50', 6.1),
  ('N=C(N)NCCC[C@@H](NC(=O)[C@@H](CCCNC(=N)N)NC(=O)CCCCCNC(=O)[C@@H](CCCCN)NC(=O)CCCCCNC(=O)[C@H]1O[C@@H](n2cnc3c(N)ncnc32)[C@H](O)[C@@H]1O)C(N)=O', 'pIC50', 7.22);

[I] N=C(N)NCCC[C@@H](NC(=O)[C@@H](CCCNC(=N)N)NC(=O)[C@@H](CCCNC(=N)N)NC(=O)[C@@H](CCCNC(=N)N)NC(=O)[C@@H](CCCNC(=N)N)NC(=O)[C@@H](CCCNC(=N)N)NC(=O)CCCCCNCCNS(=O)(=O)c1cccc2cnccc12)C(N)=O
[II] N=C(N)NCCC[C@@H](NC(=O)[C@@H](CCCNC(=N)N)NC(=O)CCCCCNC(=O)[C@@H](CCCCN)NC(=O)CNCC(=O)NCCNS(=O)(=O)c1cccc2cnccc12)C(N)=O
Exam item: Compare pIC50: is it lower for I or for II ? Label of pick, please.
Marked response: II
(II: 4.78, I: 8.26)

----------
The entries below come with measured Kd values attached.
target: Rho-associated protein kinase 2 (Homo sapiens)
assay.notes: Displacement of fluorescent-ARC-1063 from His6-tagged recombinant human ROCK2 by luminescence intensity assay
Where a SMILES comes first, the peptide text is derived from it. [ ]: non-standard residue; d: D form. The star is where a group is joined. Adenosine(5'-uronoyl) = Nc1ncnc2c1ncn2[C@@H]1O[C@H](C(=O)*)[C@@H](O)[C@H]1O; X1 = Nc1nccc(-c2ccc(C(=O)*)s2)n1; Ahx = NCCCCCC(=O)O
Report only the number, with the unit nM understood.

The examples below pair each entry with its known result.
INSERT INTO assay_data (compound, property, result_number) VALUES
  ('NCCCC[C@@H](NC(=O)CCCCCNC(=O)c1ccc(-c2ccnc(N)n2)s1)C(=O)NCCCCCC(=O)N[C@H](CCCN=C(N)N)C(=O)N[C@H](CCCN=C(N)N)C(=O)N[C@H](CCCN=C(N)N)C(=O)N[C@H](CCCN=C(N)N)C(=O)N[C@H](CCCN=C(N)N)C(=O)N[C@H](CCCN=C(N)N)C(N)=O ({X1-Ahx}-[dK][Ahx][dR][dR][dR][dR][dR][dR]-NH2)', 'Kd', 0.0056),
  ('N=C(N)NCCC[C@@H](NC(=O)[C@@H](CCCNC(=N)N)NC(=O)[C@@H](CCCNC(=N)N)NC(=O)[C@@H](CCCNC(=N)N)NC(=O)[C@@H](CCCNC(=N)N)NC(=O)[C@@H](CCCNC(=N)N)NC(=O)CCCCCNC(=O)[C@@H](CCCCN)NC(=O)CCCCCNC(=O)[C@H]1O[C@@H](n2cnc3c(N)ncnc32)[C@H](O)[C@@H]1O)C(N)=O ({Adenosine(5''-uronoyl)-Ahx}-[dK][Ahx][dR][dR][dR][dR][dR][dR]-NH2)', 'Kd', 0.021);

Exam item: Under Rho-associated protein kinase 2 (Homo sapiens), report Kd for N=C(N)NCCC[C@@H](NC(=O)[C@@H](CCCNC(=N)N)NC(=O)[C@@H](CCCNC(=N)N)NC(=O)[C@@H](CCCNC(=N)N)NC(=O)[C@@H](CCCNC(=N)N)NC(=O)[C@@H](CCCNC(=N)N)NC(=O)CCCCCNC(=O)[C@@H](CCCCN)NC(=O)CCCCCCCN1CCCN(S(=O)(=O)c2cccc3cnccc23)CC1)C(N)=O
Marked response: 0.02

----------
In this section we review reported pKd values for a set of compounds.
assay.notes: Displacement of fluorescent-ARC-1063 from recombinant bovine PKAc by luminescence intensity assay
Design: species or system Bos taurus
Where a SMILES comes first, the peptide text is derived from it. [ ]: non-standard residue; d: D form. The star is where a group is joined. Adenosine(5'-uronoyl) = Nc1ncnc2c1ncn2[C@@H]1O[C@H](C(=O)*)[C@@H](O)[C@H]1O; X1 = Nc1nccc(-c2ccc(C(=O)*)s2)n1; Ahx = NCCCCCC(=O)O
In plain terms, pKd is the concentration in mol/L turned into minus its base-10 logarithm.

Observe how each entry below is paired with its result.
INSERT INTO results (compound, result_number) VALUES
  ('N=C(N)NCCC[C@@H](NC(=O)[C@@H](CCCNC(=N)N)NC(=O)[C@@H](CCCNC(=N)N)NC(=O)[C@@H](CCCNC(=N)N)NC(=O)[C@@H](CCCNC(=N)N)NC(=O)[C@@H](CCCNC(=N)N)NC(=O)CCCCCNC(=O)[C@@H](CCCCN)NC(=O)CCCCCNC(=O)c1ccc(-c2ccnc(N)n2)s1)C(N)=O ({X1-Ahx}-[dK][Ahx][dR][dR][dR][dR][dR][dR]-NH2)', 10.25),
  ('N=C(N)NCCC[C@@H](NC(=O)[C@@H](CCCNC(=N)N)NC(=O)[C@@H](CCCNC(=N)N)NC(=O)[C@@H](CCCNC(=N)N)NC(=O)[C@@H](CCCNC(=N)N)NC(=O)[C@@H](CCCNC(=N)N)NC(=O)CCCCCNC(=O)[C@@H](CCCCN)NC(=O)CCCCCCCN1CCCN(S(=O)(=O)c2cccc3cnccc23)CC1)C(N)=O', 8.48),
  ('N=C(N)NCCC[C@@H](NC(=O)[C@@H](CCCNC(=N)N)NC(=O)[C@@H](CCCNC(=N)N)NC(=O)[C@@H](CCCNC(=N)N)NC(=O)[C@@H](CCCNC(=N)N)NC(=O)[C@@H](CCCNC(=N)N)NC(=O)CCCCCNC(=O)[C@@H](CCCCN)NC(=O)CCCCCNC(=O)[C@H]1O[C@@H](n2cnc3c(N)ncnc32)[C@H](O)[C@@H]1O)C(N)=O ({Adenosine(5''-uronoyl)-Ahx}-[dK][Ahx][dR][dR][dR][dR][dR][dR]-NH2)', 9.59);

Exam item: Report pKd for N=C(N)NCCC[C@@H](NC(=O)[C@@H](CCCNC(=N)N)NC(=O)[C@@H](CCCNC(=N)N)NC(=O)[C@@H](CCCNC(=N)N)NC(=O)[C@@H](CCCNC(=N)N)NC(=O)[C@@H](CCCNC(=N)N)NC(=O)CCCCCNC(=O)[C@H]1O[C@@H](n2cnc3c(N)ncnc32)[C@H](O)[C@@H]1O)C(N)=O
Marked response: 9.60

----------
target: Rho-associated protein kinase 2 (Homo sapiens, UniProt O75116)
Sequence (O75116 whole entry): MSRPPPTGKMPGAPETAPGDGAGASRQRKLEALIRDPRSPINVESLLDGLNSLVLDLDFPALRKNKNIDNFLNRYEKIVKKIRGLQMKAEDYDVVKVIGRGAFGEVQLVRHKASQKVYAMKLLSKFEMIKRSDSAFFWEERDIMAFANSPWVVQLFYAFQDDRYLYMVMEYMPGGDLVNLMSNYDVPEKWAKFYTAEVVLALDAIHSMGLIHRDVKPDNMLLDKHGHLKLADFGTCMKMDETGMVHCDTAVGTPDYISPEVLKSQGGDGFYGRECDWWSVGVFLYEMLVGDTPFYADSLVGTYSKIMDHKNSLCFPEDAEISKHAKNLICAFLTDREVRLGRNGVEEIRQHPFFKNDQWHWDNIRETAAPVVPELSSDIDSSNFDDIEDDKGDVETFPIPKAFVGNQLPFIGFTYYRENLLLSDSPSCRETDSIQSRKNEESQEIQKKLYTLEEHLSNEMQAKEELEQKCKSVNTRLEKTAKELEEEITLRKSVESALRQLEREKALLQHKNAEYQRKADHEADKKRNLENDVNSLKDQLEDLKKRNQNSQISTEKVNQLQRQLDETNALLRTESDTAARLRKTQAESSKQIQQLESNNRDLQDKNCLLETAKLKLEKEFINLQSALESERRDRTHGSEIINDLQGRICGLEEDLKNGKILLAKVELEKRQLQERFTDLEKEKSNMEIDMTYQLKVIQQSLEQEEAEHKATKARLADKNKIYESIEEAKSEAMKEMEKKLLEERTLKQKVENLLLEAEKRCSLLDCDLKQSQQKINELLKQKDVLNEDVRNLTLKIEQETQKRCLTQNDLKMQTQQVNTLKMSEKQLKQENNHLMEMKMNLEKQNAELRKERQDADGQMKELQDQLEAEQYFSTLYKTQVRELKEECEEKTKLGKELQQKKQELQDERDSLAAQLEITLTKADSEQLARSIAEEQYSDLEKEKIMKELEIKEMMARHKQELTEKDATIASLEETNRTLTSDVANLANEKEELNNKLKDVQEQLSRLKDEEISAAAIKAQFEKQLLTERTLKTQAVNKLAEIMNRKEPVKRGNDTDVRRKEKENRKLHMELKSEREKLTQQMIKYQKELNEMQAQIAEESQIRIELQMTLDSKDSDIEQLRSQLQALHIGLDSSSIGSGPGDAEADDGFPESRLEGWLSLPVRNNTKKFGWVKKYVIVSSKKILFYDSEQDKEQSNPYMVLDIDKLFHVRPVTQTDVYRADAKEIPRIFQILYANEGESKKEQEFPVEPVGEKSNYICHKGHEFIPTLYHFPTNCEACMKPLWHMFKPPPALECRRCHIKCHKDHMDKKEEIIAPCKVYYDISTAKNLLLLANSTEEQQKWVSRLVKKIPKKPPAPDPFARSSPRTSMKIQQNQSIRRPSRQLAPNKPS
assay.notes: Displacement of fluorescent-ARC-1042 from His6-tagged recombinant human ROCK2 by fluorescence anisotropy assay
Item-by-item account of Kd
Express the result in nM but write the number alone.

INSERT INTO results (smiles_record, result_number) VALUES
  ('N=C(N)NCCC[C@@H](NC(=O)[C@@H](CCCNC(=N)N)NC(=O)[C@@H](CCCNC(=N)N)NC(=O)[C@@H](CCCNC(=N)N)NC(=O)[C@@H](CCCNC(=N)N)NC(=O)[C@@H](CCCNC(=N)N)NC(=O)CCCCCNC(=O)[C@@H](CCCCN)NC(=O)CNCC(=O)NCCNS(=O)(=O)c1cccc2cnccc12)C(N)=O', 1.5);

Here is another molecule to look at.
Exam item: Find Kd for N=C(N)NCCC[C@@H](NC(=O)[C@@H](CCCNC(=N)N)NC(=O)[C@@H](CCCNC(=N)N)NC(=O)[C@@H](CCCNC(=N)N)NC(=O)[C@@H](CCCNC(=N)N)NC(=O)[C@@H](CCCNC(=N)N)NC(=O)CCCCCNC(=O)[C@@H](CCCCN)NC(=O)CCNC(=O)CNCC(=O)NCCNS(=O)(=O)c1cccc2cnccc12)C(N)=O on Rho-associated protein kinase 2 (Homo sapiens, UniProt O75116) and write it down.
Marked response: 0.7
